target: T1, mouse TMEM106B (mouse, UniProt Q80X71 2-275); assay: FACS, HEK293 transfectants;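 also: flow cytometry binding of hybridoma supernatants to HEK293 cells transiently expressing human, cyno or mouse TMEM106B, read as anti-mouse-APC median fluorescence, live cells only, 30 min on ice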
T1 construct: on transiently transfected HEK293 cells, or natively expressed on mouse Neuro2a cells; also called moTMEM106B; murine TMEM106B
Consider the following binders; for each one, report its fold-change over parental HEK293.
One number for each entry, in fold.

INSERT INTO measurements (binder, value) VALUES
  ('anti-TMEM106B antibody TM-31 (antibody, V domains shown, mouse IgG from hybridoma) VH: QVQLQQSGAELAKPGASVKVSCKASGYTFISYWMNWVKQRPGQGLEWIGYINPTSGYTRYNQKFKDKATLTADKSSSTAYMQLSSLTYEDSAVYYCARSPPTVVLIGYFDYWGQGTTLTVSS VL: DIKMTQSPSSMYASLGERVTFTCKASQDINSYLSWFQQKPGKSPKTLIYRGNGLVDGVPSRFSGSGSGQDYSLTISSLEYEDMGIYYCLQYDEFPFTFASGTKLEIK', 68.7);

Can you give me fold-change over parental HEK293 for all of these, one by one?
1. anti-TMEM106B antibody TM-3 (antibody, V domains shown) VH: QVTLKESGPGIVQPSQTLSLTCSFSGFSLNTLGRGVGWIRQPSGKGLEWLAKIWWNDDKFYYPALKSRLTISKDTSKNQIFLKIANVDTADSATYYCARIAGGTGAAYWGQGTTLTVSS VL: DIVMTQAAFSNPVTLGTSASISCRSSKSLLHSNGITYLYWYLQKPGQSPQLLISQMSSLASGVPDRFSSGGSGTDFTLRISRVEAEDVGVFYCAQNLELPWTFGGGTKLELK
2. anti-TMEM106B antibody TM-29 (antibody, V domains shown) VH: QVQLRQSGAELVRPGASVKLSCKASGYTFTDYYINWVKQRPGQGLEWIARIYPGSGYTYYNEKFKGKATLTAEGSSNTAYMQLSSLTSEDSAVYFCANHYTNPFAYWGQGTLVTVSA VL: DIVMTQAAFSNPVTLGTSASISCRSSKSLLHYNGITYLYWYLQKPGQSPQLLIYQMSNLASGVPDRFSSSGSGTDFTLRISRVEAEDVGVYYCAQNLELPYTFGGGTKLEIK

[out]
1. 29.2
2. 44.6
